# System: Mycosphaerella graminicola; Anamorph: Zymoseptoria tritici
# EXPERIMENTAL_PROTOCOL: Fungicidal activity: Leaf Blotch of Wheat (SEPTTR), wheat seedlings
# Type: in vivo
# PARTICULARS: 72 h, Low Volume (121.5 g/H), 3 Day Curative, wheat, read-out: SEPTTR disease control rating, 3DC
MEASUREMENT_NAME: pest or weed control at 121.5 g/ha

>>> value_observed("COc1ccnc(C(=O)N[C@H]2CCO[C@H](Cc3ccccc3)[C@@H](OCC(C)C)[C@H](C)OC2=O)c1OCOC(C)=O")
"> 70%"
>>> value_observed("COc1ccnc(C(=O)N[C@H]2CCO[C@H](CC3CCCC3)[C@@H](Oc3ccccc3)[C@H](C)OC2=O)c1OCOC(C)=O")
"> 70%"
>>> value_observed("COc1ccnc(C(=O)N[C@H]2CCO[C@H](Cc3ccc(F)cc3)[C@@H](OC(=O)C(C)C)[C@H](C)OC2=O)c1OC(C)=O")
"> 70%"
>>> value_observed("COc1ccnc(C(=O)N[C@H]2CCOC[C@@H](OCC(C)C)[C@H](C)OC2=O)c1OCOC(C)=O")
"> 70%"
>>> value_observed("CCCO[C@H]1[C@H](C)OC(=O)[C@@H](NC(=O)c2nccc(OC)c2OCOC(C)=O)CCO[C@@H]1Cc1ccc(F)cc1")
"> 70%"
>>> value_observed("CC[C@H]1OCC[C@H](NC(=O)c2nccc(OC)c2OC(C)=O)C(=O)O[C@@H](C)[C@@H]1OCC(C)C")
"> 70%"
>>> value_observed("COc1ccnc(C(=O)N[C@H]2CCOC[C@@H](Oc3ccccc3)[C@H](C)OC2=O)c1OC(C)=O")
"> 70%"
>>> value_observed("CC[C@H]1OCC[C@H](NC(=O)c2nccc(OC)c2OCOC(C)=O)C(=O)O[C@@H](C)[C@@H]1Oc1ccccc1")
"> 70%"
>>> value_observed("COc1ccnc(C(=O)N[C@H]2CCOC[C@@H](OC(=O)C(C)C)[C@H](C)OC2=O)c1OCOC(C)=O")
"< 70%"
>>> value_observed("C=C(C)CO[C@H]1[C@H](C)OC(=O)[C@@H](NC(=O)c2nccc(OC)c2OC(C)=O)CCO[C@@H]1CC")
"< 70%"
>>> value_observed("COc1ccnc(C(=O)N[C@H]2CCO[C@H](Cc3ccccc3)[C@@H](Oc3ccccc3)[C@H](C)OC2=O)c1OCOC(C)=O")
"> 70%"
>>> value_observed("COc1ccnc(C(=O)N[C@H]2CCO[C@H](Cc3ccccc3)[C@@H](Oc3ccccc3)[C@H](C)OC2=O)c1OC(C)=O")
"> 70%"
>>> value_observed("COc1ccnc(C(=O)N[C@H]2CCO[C@H](Cc3ccc(F)cc3)[C@@H](Oc3ccccc3)[C@H](C)OC2=O)c1OC(C)=O")
"< 70%"

Values from patent US20170334934A1
